FYI, the data here is from patent US20210115040A1.

# Experimental Target: OGA (Homo sapiens)
# Construct: HEK293 cells inducible for P301L mutant human Tau (isoform 2N4R) were established at Janssen; endogenous in cells; host or cells: HEK293 cells inducible for P301L mutant human Tau (2N4R)
# Sequence (O60502 1-916): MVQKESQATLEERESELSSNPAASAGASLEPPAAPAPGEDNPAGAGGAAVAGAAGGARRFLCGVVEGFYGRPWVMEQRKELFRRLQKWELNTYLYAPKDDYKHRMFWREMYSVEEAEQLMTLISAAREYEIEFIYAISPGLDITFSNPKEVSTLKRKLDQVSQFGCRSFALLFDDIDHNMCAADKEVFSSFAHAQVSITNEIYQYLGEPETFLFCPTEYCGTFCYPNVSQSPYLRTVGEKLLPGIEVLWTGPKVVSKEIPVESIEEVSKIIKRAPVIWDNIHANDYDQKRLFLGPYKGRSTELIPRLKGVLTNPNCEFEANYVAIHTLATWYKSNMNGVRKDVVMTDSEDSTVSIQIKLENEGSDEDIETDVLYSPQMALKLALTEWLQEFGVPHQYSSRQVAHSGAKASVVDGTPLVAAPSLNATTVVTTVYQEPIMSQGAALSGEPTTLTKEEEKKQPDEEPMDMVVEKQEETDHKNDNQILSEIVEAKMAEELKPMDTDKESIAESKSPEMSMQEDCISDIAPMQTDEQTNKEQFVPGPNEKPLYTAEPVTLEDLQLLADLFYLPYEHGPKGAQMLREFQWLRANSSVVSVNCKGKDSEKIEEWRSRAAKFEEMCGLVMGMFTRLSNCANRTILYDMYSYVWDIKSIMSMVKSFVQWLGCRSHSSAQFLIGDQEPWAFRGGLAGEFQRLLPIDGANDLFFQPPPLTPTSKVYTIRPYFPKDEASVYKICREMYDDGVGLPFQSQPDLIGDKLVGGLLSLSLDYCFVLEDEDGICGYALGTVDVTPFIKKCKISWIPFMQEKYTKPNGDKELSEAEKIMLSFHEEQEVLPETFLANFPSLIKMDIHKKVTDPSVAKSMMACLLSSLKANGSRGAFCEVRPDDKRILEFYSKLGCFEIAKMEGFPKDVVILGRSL
# Assay Overview: OGA cellular assay (ICC detection of O-GlcNAcylated proteins in HEK293 cells inducible for P301L mutant human Tau)
# Format: cell-based
# Measurement Setup: HEK293, HEK293 cells inducible for P301L mutant human Tau, maximum = Thiamet G 200 uM
Test Readout: Emax (%)

Cc1cc(C2CCCN(C(C)c3ccc4sc(C)nc4n3)C2)cc(C)n1 (racemic) [Compound 39]	79
Cc1cc(C[C@H]2CCN(C(C)c3cnc4[nH]c(C)nc4c3)C2)cc(C(F)(F)F)n1 (stereo partly shown) [Compound 104]	20
Cc1cc([C@H]2CCCN([C@@H](C)c3ccc4sc(C)nc4n3)C2)nc(C)n1 (racemic) [Compound 71]	-5
Cc1cc([C@H]2CCCN(C(C)c3nc4nc(C)sc4cc3F)C2)cc(C)n1 (single isomer, unassigned) [Compound 85]	75
Cc1cc(C2CCCN(C(C)c3cc4nc(C)sc4cc3F)C2)cc(C)n1 (stereo not shown) [Compound 89]	64
Cc1cc(CO[C@H]2CCCN(C(C)c3ccc4sc(C)nc4n3)C2)cc(C)n1 (stereo partly shown) [Compound 66]	55

(1) Cc1cc(OC[C@H]2CCCN([C@@H](C)c3ccc4sc(C)nc4n3)C2)nc(C)n1 [Compound 49a]
(2) Cc1cc(C2CCCN(C(C)c3ccc4oc(C)nc4n3)C2)cc(C(F)(F)F)n1 (racemic) [Compound 19]
Quick check, higher Emax between 1 and 2 ? Your answer should be the label of the entry you select.
2
(2: 68%, 1: -2%)
